B1: glmS ribozyme (parent)
chain: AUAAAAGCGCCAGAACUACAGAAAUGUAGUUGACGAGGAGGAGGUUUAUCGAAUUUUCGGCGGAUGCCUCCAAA

# Variants of: B1
# method.notes: self-cleavage kobs at 10000 uM GlcN6P; higher = faster cleavage; RNA array
# measurement.setup: with glucosamine-6-phosphate
This sample holds only a part of the variants without activity.
Classification by self-cleavage kobs at 10000 uM GlcN6P follows these ranges: small value (below 0.0001 s⁻¹), mid value (0.0001 s⁻¹ to below 0.0004 s⁻¹), large value (0.0004 s⁻¹ or more)

[
  {
    "variant.designation": "C58U C71U",
    "class.assignment": "small value"
  },
  {
    "variant.designation": "C11U C58U",
    "class.assignment": "small value"
  },
  {
    "variant.designation": "A14G G29C U56A",
    "class.assignment": "large value"
  },
  {
    "variant.designation": "C8G G9C G13U G37U A64G",
    "class.assignment": "small value"
  },
  {
    "variant.designation": "C10A G59C",
    "class.assignment": "small value"
  },
  {
    "variant.designation": "G38U C58U U69G",
    "class.assignment": "mid value"
  },
  {
    "variant.designation": "G32A G37A",
    "class.assignment": "mid value"
  },
  {
    "variant.designation": "A6U A15G U30C",
    "class.assignment": "mid value"
  },
  {
    "variant.designation": "G41A G59U",
    "class.assignment": "small value"
  },
  {
    "variant.designation": "U45A U65G",
    "class.assignment": "large value"
  },
  {
    "variant.designation": "A14G C16G",
    "class.assignment": "large value"
  },
  {
    "variant.designation": "C34A U47G A52U C70A",
    "class.assignment": "large value"
  },
  {
    "variant.designation": "A6G G60A U65G",
    "class.assignment": "small value"
  },
  {
    "variant.designation": "G7C C16A",
    "class.assignment": "small value"
  },
  {
    "variant.designation": "G37A U65G",
    "class.assignment": "mid value"
  },
  {
    "variant.designation": "C8A A15G",
    "class.assignment": "small value"
  },
  {
    "variant.designation": "A6G A15C",
    "class.assignment": "small value"
  },
  {
    "variant.designation": "A48C G51A",
    "class.assignment": "small value"
  },
  {
    "variant.designation": "G38A G44U A53G",
    "class.assignment": "small value"
  },
  {
    "variant.designation": "A12G G51C G60U",
    "class.assignment": "small value"
  },
  {
    "variant.designation": "G35U A53U C61G C68G",
    "class.assignment": "large value"
  },
  {
    "variant.designation": "G7U G13A G29U",
    "class.assignment": "small value"
  },
  {
    "variant.designation": "G7C U46G C67G",
    "class.assignment": "small value"
  },
  {
    "variant.designation": "A14G U31C G41C G63A",
    "class.assignment": "small value"
  },
  {
    "variant.designation": "G59A",
    "class.assignment": "small value"
  },
  {
    "variant.designation": "A48C C61G C70G",
    "class.assignment": "small value"
  },
  {
    "variant.designation": "G9C C34A U55C",
    "class.assignment": "small value"
  },
  {
    "variant.designation": "A14C A52U A53C",
    "class.assignment": "small value"
  },
  {
    "variant.designation": "U55G C68U",
    "class.assignment": "large value"
  },
  {
    "variant.designation": "U31A A36C",
    "class.assignment": "small value"
  },
  {
    "variant.designation": "A39G U56G C68U",
    "class.assignment": "large value"
  },
  {
    "variant.designation": "G7A G60A",
    "class.assignment": "small value"
  },
  {
    "variant.designation": "G51U G62U",
    "class.assignment": "small value"
  },
  {
    "variant.designation": "G41U C71A",
    "class.assignment": "mid value"
  },
  {
    "variant.designation": "C68A C71A",
    "class.assignment": "small value"
  },
  {
    "variant.designation": "A14U G29U",
    "class.assignment": "mid value"
  },
  {
    "variant.designation": "C8U G32C",
    "class.assignment": "small value"
  },
  {
    "variant.designation": "A14G U55G",
    "class.assignment": "large value"
  },
  {
    "variant.designation": "A12G U30G",
    "class.assignment": "small value"
  },
  {
    "variant.designation": "G41C U56A",
    "class.assignment": "mid value"
  },
  {
    "variant.designation": "G62U C67G",
    "class.assignment": "small value"
  },
  {
    "variant.designation": "U31A U69G",
    "class.assignment": "small value"
  },
  {
    "variant.designation": "A12C C70A",
    "class.assignment": "mid value"
  },
  {
    "variant.designation": "A39C G44C G60U",
    "class.assignment": "small value"
  },
  {
    "variant.designation": "G44C U56A",
    "class.assignment": "small value"
  },
  {
    "variant.designation": "A12C U49G",
    "class.assignment": "mid value"
  },
  {
    "variant.designation": "U30G U45C",
    "class.assignment": "large value"
  },
  {
    "variant.designation": "G13U G44C U56C",
    "class.assignment": "small value"
  },
  {
    "variant.designation": "G60U C71A",
    "class.assignment": "small value"
  },
  {
    "variant.designation": "A12C C70G",
    "class.assignment": "mid value"
  },
  {
    "variant.designation": "A15G G41A U54A",
    "class.assignment": "small value"
  },
  {
    "variant.designation": "A53U U56C C71U",
    "class.assignment": "large value"
  },
  {
    "variant.designation": "G9C U49C",
    "class.assignment": "small value"
  },
  {
    "variant.designation": "U57C G63A",
    "class.assignment": "small value"
  },
  {
    "variant.designation": "C16G U30C",
    "class.assignment": "mid value"
  },
  {
    "variant.designation": "A15U G66U",
    "class.assignment": "mid value"
  },
  {
    "variant.designation": "A12G A33G",
    "class.assignment": "small value"
  },
  {
    "variant.designation": "U31A G41U",
    "class.assignment": "mid value"
  },
  {
    "variant.designation": "G26U A53G U69G",
    "class.assignment": "small value"
  },
  {
    "variant.designation": "A33U U47A U54C",
    "class.assignment": "small value"
  },
  {
    "variant.designation": "G29A G35U",
    "class.assignment": "small value"
  },
  {
    "variant.designation": "G43U G59C C68A",
    "class.assignment": "small value"
  },
  {
    "variant.designation": "G29C G41U U46C G62U",
    "class.assignment": "small value"
  },
  {
    "variant.designation": "U30G G41U C68A",
    "class.assignment": "small value"
  },
  {
    "variant.designation": "C11U A12U C34A G66C",
    "class.assignment": "small value"
  },
  {
    "variant.designation": "A14C G32C C71U",
    "class.assignment": "mid value"
  },
  {
    "variant.designation": "C8G U30C",
    "class.assignment": "small value"
  },
  {
    "variant.designation": "G9U G41C G59A C71U",
    "class.assignment": "small value"
  },
  {
    "variant.designation": "A39U U65G",
    "class.assignment": "large value"
  }
]
